target_or_test_system: human TLR7 (Homo sapiens (Human))
Sequence (Q9NYK1 27-1049): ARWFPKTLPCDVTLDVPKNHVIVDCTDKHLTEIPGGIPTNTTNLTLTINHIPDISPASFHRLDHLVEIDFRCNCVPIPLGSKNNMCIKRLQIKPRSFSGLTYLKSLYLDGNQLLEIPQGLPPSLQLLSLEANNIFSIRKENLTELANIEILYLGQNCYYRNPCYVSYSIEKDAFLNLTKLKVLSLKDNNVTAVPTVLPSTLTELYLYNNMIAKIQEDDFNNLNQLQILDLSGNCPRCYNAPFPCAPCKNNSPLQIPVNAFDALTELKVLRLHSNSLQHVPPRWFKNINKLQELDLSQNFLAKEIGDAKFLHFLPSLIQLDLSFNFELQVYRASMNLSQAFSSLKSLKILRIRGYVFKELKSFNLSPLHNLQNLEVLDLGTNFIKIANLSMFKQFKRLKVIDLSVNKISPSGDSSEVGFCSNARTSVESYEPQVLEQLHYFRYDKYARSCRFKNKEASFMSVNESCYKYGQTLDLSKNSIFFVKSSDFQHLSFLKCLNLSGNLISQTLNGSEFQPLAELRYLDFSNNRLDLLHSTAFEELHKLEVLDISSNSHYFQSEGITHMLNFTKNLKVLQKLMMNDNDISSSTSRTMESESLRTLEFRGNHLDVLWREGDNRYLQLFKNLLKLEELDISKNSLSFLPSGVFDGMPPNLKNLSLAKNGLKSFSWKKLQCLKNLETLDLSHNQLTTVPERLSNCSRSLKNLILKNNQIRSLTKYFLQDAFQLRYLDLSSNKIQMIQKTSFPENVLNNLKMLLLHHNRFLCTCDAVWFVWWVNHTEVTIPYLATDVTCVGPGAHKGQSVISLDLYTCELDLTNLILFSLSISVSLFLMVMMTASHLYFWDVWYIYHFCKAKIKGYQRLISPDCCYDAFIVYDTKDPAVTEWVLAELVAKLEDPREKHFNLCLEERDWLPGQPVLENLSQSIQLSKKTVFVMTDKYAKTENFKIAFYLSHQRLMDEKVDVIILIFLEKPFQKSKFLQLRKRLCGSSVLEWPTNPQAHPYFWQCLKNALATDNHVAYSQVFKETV
measurement_protocol: TLR7 inhibition reporter assay (HEK-Blue cells, SEAP reporter, gardiquimod stimulation)
Type: cell-based
condition_info: HEK-Blue cells overexpressing human TLR7, gardiquimod 7.5 μM
Exercise: for every item that follows, state its recorded pIC50.
Give bare numbers, as −log10 of the molar value.

- compound: "Cc1cc(-c2[nH]c3ccc(C4CCN(Cc5[nH]cnc5C)CC4)cc3c2C(C)C)ccn1"
  pIC50: 7.55
- compound: "Cc1cc(-c2[nH]c3ccc(C4CCN(C5CCN(C(C)C)CC5)CC4)cc3c2C(C)C)cc(C)n1"
  pIC50: 8.08
- compound: "Cc1cc(-c2[nH]c3ccc(C4CCN(C(=O)CN5CCCC(F)(F)C5)CC4)cc3c2C(C)C)cc(C)n1"
  pIC50: 7.75
- compound: "CCc1c(-c2ccnc(C)c2)[nH]c2ccc(C3CCNCC3)c(C)c12"
  pIC50: 8.14
- compound: "Cc1cc(-c2[nH]c3ccc(C4CCN(CC(=O)N5C(C)CCC5C)CC4)cc3c2C(C)C)cc(C)n1 (stereo not shown)"
  pIC50: 8.24

I would be grateful if you could provide pIC50 for each of the following entries.
1. Cc1cc(-c2[nH]c3ccc(C4CCNCC4)cc3c2C(C)C)c(F)c(C)n1
2. CC(C)c1c(-c2ccnc(C(F)(F)F)c2)[nH]c2ccc(C3CCNCC3)cc12
3. Cc1cc(-c2[nH]c3ccc(C4CCN(CC(=O)N5CC[C@@H](O)C5)CC4)cc3c2C(C)C)cc(C)n1
4. Cc1cc(-c2[nH]c3ccc(C4CCNCC4)cc3c2C2CC2)cc(C)n1

[9.00, 7.55, 8.80, 8.48]

Go through the list and state pIC50 for each entry.
1. Cc1cc(-c2[nH]c3ccc(C4CCN(C(=O)[C@@H]5C[C@@H](F)CN5)CC4)cc3c2C(C)C)cc(C)n1
2. Cc1cc(C(=O)N2CCC(c3ccc4[nH]c(-c5cc(C)nc(C)c5)c(C(C)C)c4c3)CC2)c(=O)[nH]n1
3. Cc1cc(-c2[nH]c3ccc(C4CCN(C(=O)CNC5CCOC5)CC4)cc3c2C(C)C)cc(C)n1 (stereo not shown)
4. Cc1cc(-c2[nH]c3ccc(C4CCN(C5CCNCC5F)CC4)cc3c2C(C)C)ccn1 (stereo not shown)
5. Cc1cc(-c2[nH]c3ccc(C4CCN(C(=O)C5CC(=O)N(C)C5)CC4)cc3c2CC(F)F)cc(C)n1 (stereo not shown)
6. Cc1cc(-c2[nH]c3ccc(C4CCN(CC(O)C(F)(F)F)CC4)cc3c2C(C)C)ccn1 (stereo not shown)
7. Cc1cc(-c2[nH]c3ccc(C4CCN(CC(=O)NCC(C)O)CC4)cc3c2C(C)C)cc(C)n1 (stereo not shown)

1: 8.80; 2: 7.48; 3: 9.22; 4: 7.66; 5: 7.20; 6: 7.51; 7: 8.82

###

Give measured IC50 for each item. Keep answers brief.
target_or_test_system: human TLR7 (Homo sapiens (Human))
measurement_protocol: TLR7 inhibition reporter assay (HEK-Blue cells, SEAP reporter, gardiquimod stimulation)
Type: cell-based
condition_info: HEK-Blue cells overexpressing human TLR7, gardiquimod 7.5 μM
One number for each entry, in nM.

Look over these answered cases.
- molecule: "CCc1c(-c2cc(Cl)ncc2F)[nH]c2ccc(C3CCN(C4CCN(CC(C)C)CC4)CC3)cc12 [Example 760]"
  reported_endpoint: "IC50"
  value_observed: 537
- molecule: "Cc1cc(-c2[nH]c3ccc(C4CCN(C(=O)[C@@H](N)CCCN)CC4)cc3c2C(C)C)ccn1 [Example 577]"
  reported_endpoint: "IC50"
  value_observed: 121
- molecule: "Cc1cc(-c2[nH]c3ccc(C4CCN(CC(=O)N5CCC[C@H]5CO)CC4)cc3c2C(C)C)cc(C)n1 [Example 274]"
  reported_endpoint: "IC50"
  value_observed: 1.9
- molecule: "C=C(c1c(-c2cc(C)nc(C)c2)[nH]c2ccc(C3CCNCC3)cc12)C(F)(F)F [Example 91]"
  reported_endpoint: "IC50"
  value_observed: 3.2
- molecule: "CCc1c(-c2ccnc(N)c2)[nH]c2ccc(C3CCN(C4CCN(CC(C)C)CC4)CC3)cc12 [Example 773]"
  reported_endpoint: "IC50"
  value_observed: 613

Give IC50 for each listed item.
1. Cc1cc(-c2[nH]c3ccc(C4CCN(C(=O)c5c(C)nn(C)c5C)CC4)cc3c2C(C)C)cc(C)n1 [Example 131]
2. Cc1cc(-c2[nH]c3ccc(C4CCN(Cc5ccnn5C)CC4)cc3c2C(C)C)cc(C)n1 [Example 461]
3. Cc1cc(-c2[nH]c3ccc(C4CCN(C(=O)C5CCNC5)CC4)cc3c2C(C)C)ccn1 (stereo not drawn) [Example 572]
4. Cc1cc(-c2[nH]c3ccc(C4CCN(C(=O)C5CCN(Cc6ccccc6)C5)CC4)cc3c2C(C)C)ccn1 (stereo not drawn) [Example 575]

1: 12; 2: 9.3; 3: 5.1; 4: 34

For every item in the list below, what is its measured IC50?
1. CCc1c(-c2ccnc(C)c2)[nH]c2ccc(C3CCN(C(=O)[C@H]4CC(F)(F)CN4)CC3)cc12 [Example 623]
2. CCCS(=O)(=O)N1CCC(c2ccc3[nH]c(-c4ccnc(C)c4)c(C(C)C)c3c2)CC1 [Example 545]
3. CCCN(CCO)CC(=O)N1CCC(c2ccc3[nH]c(-c4cc(C)nc(C)c4)c(C(C)C)c3c2)CC1 [Example 398]
4. Cc1cc(-c2[nH]c3ccc(C4CCN(C(=O)CC#N)CC4)cc3c2C(C)C)ccn1 [Example 616]
5. Cc1cc(-c2[nH]c3ccc(C4CCN(C(=O)Cc5csc(C)n5)CC4)cc3c2C(C)C)cc(C)n1
6. COc1ncc(CN2CCC(c3ccc4[nH]c(-c5cc(C)ncc5F)c(C(C)C)c4c3)CC2)cn1 [Example 733]
7. Cc1cc(-c2[nH]c3ccc(C4CCN(C(=O)CC5C(=O)NC(=O)N5C)CC4)cc3c2C(C)C)cc(C)n1 (stereo not drawn) [Example 130]

1: 201; 2: 102; 3: 3.5; 4: 33.7; 5: 16.4; 6: 11.1; 7: 29.7

Quick batch: IC50 for everything below.
1. Cc1cc(-c2[nH]c3ccc(C4CCN(C(=O)C5CC(=O)N(C)C5)CC4)cc3c2C(C)C)cc(C2CC2)n1 (stereo not drawn) [Example 507]
2. CNCCN1CCC(c2ccc3[nH]c(-c4ccnc(F)c4)c(C)c3c2)CC1 [Example 750]
3. Cc1cc(-c2[nH]c3ccc(C4CCN(C(=O)C5CC(=O)N(C)C5)CC4)cc3c2C(C)C)cc(C)n1 (single isomer, unassigned) [Example 101]
4. CCc1cc(-c2[nH]c3ccc(C4CCN(CCNC)CC4)cc3c2C)ccn1 [Example 748]

52
332
9.3
495
